- TESTED_TARGET: Jak1 (Homo sapiens)
- Construct: using a recombinant purified GST-tagged catalytic domain for each enzyme; GST; purchased Invitrogen M4290
- Sequence (P23458 875-1153 limits assumed): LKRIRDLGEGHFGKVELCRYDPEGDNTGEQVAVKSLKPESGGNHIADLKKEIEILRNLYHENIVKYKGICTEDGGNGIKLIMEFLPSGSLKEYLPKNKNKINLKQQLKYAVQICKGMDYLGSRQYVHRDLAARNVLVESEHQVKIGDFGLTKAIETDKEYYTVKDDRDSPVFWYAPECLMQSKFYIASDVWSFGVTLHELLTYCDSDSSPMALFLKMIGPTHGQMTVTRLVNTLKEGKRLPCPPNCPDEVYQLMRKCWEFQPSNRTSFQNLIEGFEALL
- ASSAY_DETAILS: Jak Biochemical HTRF Assay (Jak1)
- CONDITION_LABEL: IC50 class, recombinant GST-tagged catalytic domain, read-out: Jak1 activity
READOUT_TYPE: IC50

Example entries and their recorded answers appear below.
In [3]: df
Out[3]:
                                   compound  readout_type  observed_value
0  O=C(c1ccnc2ccccc12)N1CCC[C@@H]2[C@H]1CCN2c1ncnc2[nH]ccc12 [Example 29-61]          IC50    10 to 100 nM
1  Cn1ccc2cc(C(=O)N3CCC[C@@H]4[C@H]3CCN4c3ncnc4[nH]ccc34)cnc21 [Example 29-50]          IC50  100 to 1000 nM
2  O=C(O)c1ccc(CCOC(=O)N2CCC[C@@H]3[C@H]2CCN3c2ncnc3[nH]ccc23)cc1 [Example 28]          IC50  100 to 1000 nM
3  O=S(=O)(N1CCC[C@@H]2[C@H]1CCN2c1ncnc2[nH]ccc12)C(F)(F)F (single isomer, unassigned) [Example 32-5]          IC50  100 to 1000 nM
4  O=C(c1cnccn1)N1CCC[C@@H]2[C@H]1CCN2c1ncnc2[nH]ccc12 [Example 29-13]          IC50    10 to 100 nM

Q) Value lookup for IC50; key = CN(C)C(=O)N1CCC(C(=O)N2CCC[C@@H]3[C@H]2CCN3c2ncnc3[nH]ccc23)CC1 [Example 29-35]
A) 10 to 100 nM

Q) Value lookup for IC50; key = O=C(OCc1ccccc1)N1CCCC2C1CCN2c1ncnc2[nH]ccc12 (racemic) [Example 1]
A) 10 to 100 nM
